Attribution: patent US5648354A

Parameter MIC, tested on Candida albicans ATCC10259, listed per item.
The reply should be a number in µg/mL, with the unit left off.

Sample records with MIC:
Give reported MIC value for `OCC1=CC=C(COc2ccccc2)SS1`
25

Give reported MIC value for `OCC1=CC=C(COc2nc3ccccc3nc2O)SS1`
50

Give reported MIC value for `COC(=O)c1cccc(OCC2=CC=C(CO)SS2)c1`
3.1

Further cases:
Give reported MIC value for `OCC1=CC=C(COc2cccc(O)c2)SS1`
50

Give reported MIC value for `OCC1=CC=C(COc2ccccn2)SS1`
3.1

Give reported MIC value for `OCC1=CC=C(COc2cccnc2)SS1`
3.1

Give reported MIC value for `OCC1=CC=C(CSc2nnnn2-c2ccc(O)cc2)SS1`
25

Give reported MIC value for `OCC1=CC=C(COc2ccc(-n3ccnc3)cc2)SS1`
12.5

###

Parameter MIC, tested on Candida albicans ATCC10259, listed per item.
The reply should be a number in mg/L, with the unit left off.

Give reported MIC value for `OCC1=CC=C(COc2cc(C(F)(F)F)ccc2Cl)SS1`
1.6

Give reported MIC value for `OCC1=CC=C(COc2ccccc2C(F)(F)F)SS1`
25

Give reported MIC value for `C#Cc1cccc(OCC2=CC=C(CO)SS2)c1`
1.6

Give reported MIC value for `COC(=O)c1ccc(OCC2=CC=C(CO)SS2)cc1`
3.1

Give reported MIC value for `O=[N+]([O-])c1ccc(OCC2=CC=C(CO)SS2)nc1`
0.2

Give reported MIC value for `O=C(OCC1=CC=C(CO)SS1)c1ccccc1`
6.3

Further cases:
Give reported MIC value for `COC(=O)c1ccccc1OCC1=CC=C(CO)SS1`
6.3

Give reported MIC value for `OCC1=CC=C(COc2ccccc2F)SS1`
3.1

###

Parameter MIC, tested on Candida albicans ATCC10259, listed per item.

Give MIC for this entry on Candida albicans ATCC10259: `OCC1=CC=C(COc2ccc(O)nn2)SS1`
> 100 mg/L

Further cases:
Give MIC for this entry on Candida albicans ATCC10259: `O=c1ccccn1CC1=CC=C(CO)SS1`
> 100 mg/L

Give MIC for this entry on Candida albicans ATCC10259: OCC1=CC=C(COCC(O)CO)SS1 (stereo not shown)
> 100 mg/L

Give MIC for this entry on Candida albicans ATCC10259: `CN(C)c1cccc(OCC2=CC=C(CO)SS2)c1`
> 50 mg/L
